assay: Concentration required to inhibit the activation of human prothrombin in a preformed complex of factor Xa, factor IIa and phospholipid in vitro; settings: in the assay text read “factor Va” for “factor IIa”
log10(IC50) values for the compounds below.
Parameter measured: log10(IC50) (log10 of the value in nM)

[
  {
    "Compound": "N=C(N)N1CCC(C[C@@H](NS(=O)(=O)Cc2cccc(C(=O)O)c2)C(=O)NCC(=O)N[C@H]2CCCN(C(=N)N)C2O)CC1 (stereo partly drawn)",
    "log10(IC50)": 1.15
  },
  {
    "Compound": "N=C(N)N1CCC(C[C@@H](NS(=O)(=O)Cc2ccccc2C(=O)O)C(=O)NCC(=O)N[C@H]2CCCN(C(=N)N)C2O)CC1 (stereo partly drawn)",
    "log10(IC50)": 1.08
  },
  {
    "Compound": "N=C(N)N1CCCC(C[C@@H](NS(=O)(=O)Cc2ccccc2)C(=O)NCC(=O)N[C@H]2CCCN(C(=N)N)C2O)C1 (stereo in doubt)",
    "log10(IC50)": 0.52
  },
  {
    "Compound": "N=C(N)NCCC[C@@H](NC(=O)OCc1ccccc1)C(=O)NCC(=O)N[C@H]1CCCN(C(=N)N)C1O (single isomer, unassigned)",
    "log10(IC50)": 0.90
  },
  {
    "Compound": "N=C(N)N1CCCC(C[C@@H](NS(=O)(=O)Cc2ccccc2)C(=O)NCC(=O)N[C@H]2CCCN(C(=N)N)C2O)C1 (single isomer, unassigned)",
    "log10(IC50)": 0.62
  },
  {
    "Compound": "N=C(N)NCCC[C@@H](NC(=O)OCc1ccccc1)C(=O)NCC(=O)N[C@H]1CCCN(C(=N)N)C1O (stereo in doubt)",
    "log10(IC50)": 0.53
  },
  {
    "Compound": "N=C(N)N1CCC(C[C@@H](NS(=O)(=O)Cc2ccccc2-n2cnnn2)C(=O)NCC(=O)N[C@H]2CCCN(C(=N)N)C2O)CC1 (stereo partly drawn)",
    "log10(IC50)": 1.84
  },
  {
    "Compound": "N=C(N)N1CCC(C[C@@H](NS(=O)(=O)Cc2ccccc2)C(=O)NCC(=O)N[C@H]2CCCN(C(=N)N)C2O)CC1 (stereo partly drawn)",
    "log10(IC50)": 0.49
  }
]

====

pIC50: −log10 of the molar value.
Plasminogen (Homo sapiens, UniProt P00747) data, read-out pIC50
Sequence (P00747 97-580 limits assumed): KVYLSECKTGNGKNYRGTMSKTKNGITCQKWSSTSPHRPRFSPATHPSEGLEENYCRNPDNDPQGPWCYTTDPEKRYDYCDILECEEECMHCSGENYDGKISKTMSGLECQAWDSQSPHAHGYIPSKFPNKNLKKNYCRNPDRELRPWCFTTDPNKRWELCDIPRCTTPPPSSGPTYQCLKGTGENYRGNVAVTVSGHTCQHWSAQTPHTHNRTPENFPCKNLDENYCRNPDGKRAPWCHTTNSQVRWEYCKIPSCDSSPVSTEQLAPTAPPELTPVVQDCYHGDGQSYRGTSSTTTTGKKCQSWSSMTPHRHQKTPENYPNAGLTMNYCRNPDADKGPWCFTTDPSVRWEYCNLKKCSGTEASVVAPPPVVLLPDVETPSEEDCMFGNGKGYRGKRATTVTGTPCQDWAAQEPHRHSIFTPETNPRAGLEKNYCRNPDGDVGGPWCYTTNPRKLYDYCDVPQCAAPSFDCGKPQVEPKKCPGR
Sequence (P00747 581-810 limits assumed): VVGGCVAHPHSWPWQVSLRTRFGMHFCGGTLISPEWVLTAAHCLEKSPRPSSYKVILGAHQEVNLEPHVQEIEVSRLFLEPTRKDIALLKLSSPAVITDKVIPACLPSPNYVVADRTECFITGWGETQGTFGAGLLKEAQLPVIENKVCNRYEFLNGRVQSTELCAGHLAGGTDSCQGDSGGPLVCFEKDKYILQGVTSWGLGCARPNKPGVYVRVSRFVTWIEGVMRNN

[
  {
    "Compound": "N=C(N)N1CCC(C[C@@H](NS(=O)(=O)Cc2ccccc2-n2cnnn2)C(=O)NCC(=O)N[C@H]2CCCN(C(=N)N)C2O)CC1 (some centres undefined)",
    "Target": "Plasminogen (Homo sapiens, UniProt P00747)",
    "Qualifier operator": "=",
    "pIC50": 6.06
  },
  {
    "Compound": "N=C(N)N1CCCC(C[C@@H](NS(=O)(=O)Cc2ccccc2C(=O)O)C(=O)NCC(=O)N[C@H]2CCCN(C(=N)N)C2O)C1 (stereo in doubt)",
    "Target": "Plasminogen (Homo sapiens, UniProt P00747)",
    "Qualifier operator": "<",
    "pIC50": 5.60
  },
  {
    "Compound": "COC(=O)c1ccccc1CS(=O)(=O)N[C@H](CC1CCN(C(=N)N)CC1)C(=O)NCC(=O)N[C@H]1CCCN(C(=N)N)C1O (some centres undefined)",
    "Target": "Plasminogen (Homo sapiens, UniProt P00747)",
    "Qualifier operator": "=",
    "pIC50": 6.02
  },
  {
    "Compound": "N=C(N)N1CCC(C(NS(=O)(=O)Cc2ccccc2)C(=O)NCC(=O)N[C@H]2CCCN(C(=N)N)C2O)CC1 (some centres undefined)",
    "Target": "Plasminogen (Homo sapiens, UniProt P00747)",
    "Qualifier operator": "=",
    "pIC50": 6.17
  }
]
